// reported pIC50 for each item listed
target.entity: RPMI 8866 cells (Homo sapiens, UniProt P13612+P26010)
Sequence (P13612 34-1032): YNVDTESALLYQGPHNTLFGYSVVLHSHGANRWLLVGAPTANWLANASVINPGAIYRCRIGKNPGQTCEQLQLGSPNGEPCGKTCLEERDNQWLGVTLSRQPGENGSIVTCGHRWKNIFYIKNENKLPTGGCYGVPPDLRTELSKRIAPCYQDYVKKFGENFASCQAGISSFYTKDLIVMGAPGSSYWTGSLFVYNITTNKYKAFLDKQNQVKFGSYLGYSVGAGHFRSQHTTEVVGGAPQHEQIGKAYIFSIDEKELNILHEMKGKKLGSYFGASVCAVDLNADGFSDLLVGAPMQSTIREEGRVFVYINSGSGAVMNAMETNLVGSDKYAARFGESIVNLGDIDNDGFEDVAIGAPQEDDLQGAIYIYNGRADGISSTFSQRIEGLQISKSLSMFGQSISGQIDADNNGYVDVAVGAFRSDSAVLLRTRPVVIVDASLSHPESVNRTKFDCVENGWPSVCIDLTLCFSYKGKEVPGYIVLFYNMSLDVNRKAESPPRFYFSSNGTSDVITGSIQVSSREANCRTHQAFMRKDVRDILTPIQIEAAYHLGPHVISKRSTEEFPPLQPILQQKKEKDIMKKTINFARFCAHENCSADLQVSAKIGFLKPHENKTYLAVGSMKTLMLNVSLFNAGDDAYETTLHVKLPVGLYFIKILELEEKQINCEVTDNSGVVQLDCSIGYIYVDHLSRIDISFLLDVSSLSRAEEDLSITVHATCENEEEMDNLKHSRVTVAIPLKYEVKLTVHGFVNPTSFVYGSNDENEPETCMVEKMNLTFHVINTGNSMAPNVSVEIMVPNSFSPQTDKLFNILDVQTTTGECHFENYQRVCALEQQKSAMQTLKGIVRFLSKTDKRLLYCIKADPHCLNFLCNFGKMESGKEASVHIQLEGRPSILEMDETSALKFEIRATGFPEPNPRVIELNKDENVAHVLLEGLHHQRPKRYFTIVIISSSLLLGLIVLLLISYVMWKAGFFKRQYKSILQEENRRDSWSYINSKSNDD
Sequence (P26010 20-798): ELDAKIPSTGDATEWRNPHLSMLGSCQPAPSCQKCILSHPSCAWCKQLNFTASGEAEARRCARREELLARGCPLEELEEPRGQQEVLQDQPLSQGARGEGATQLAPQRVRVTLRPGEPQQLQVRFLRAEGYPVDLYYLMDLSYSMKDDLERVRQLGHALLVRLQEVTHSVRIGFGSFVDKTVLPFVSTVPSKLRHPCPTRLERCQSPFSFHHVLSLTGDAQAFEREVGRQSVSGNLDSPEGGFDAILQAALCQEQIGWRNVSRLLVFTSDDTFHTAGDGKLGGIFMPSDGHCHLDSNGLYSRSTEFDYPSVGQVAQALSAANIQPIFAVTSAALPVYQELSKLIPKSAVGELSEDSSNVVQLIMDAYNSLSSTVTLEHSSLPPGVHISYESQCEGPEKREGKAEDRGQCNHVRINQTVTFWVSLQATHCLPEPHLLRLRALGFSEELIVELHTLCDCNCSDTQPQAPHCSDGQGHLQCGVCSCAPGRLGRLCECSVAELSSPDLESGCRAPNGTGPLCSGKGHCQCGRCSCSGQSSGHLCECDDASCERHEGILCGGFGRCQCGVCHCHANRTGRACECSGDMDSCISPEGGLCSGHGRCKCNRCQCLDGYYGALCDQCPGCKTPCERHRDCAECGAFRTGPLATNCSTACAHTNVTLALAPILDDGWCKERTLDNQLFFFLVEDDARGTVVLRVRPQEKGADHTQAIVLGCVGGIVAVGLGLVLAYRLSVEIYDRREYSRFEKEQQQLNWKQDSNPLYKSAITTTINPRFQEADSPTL
assay.notes: α4β7-MAdCAM Cell Adhesion Assay
Format: cell-based
assay.conditions: thioether peptide dimers, Table 7; read-out: Cell-Adhesion A4B7
pIC50: −log10 of the molar value. Where a SMILES comes first, the peptide text is derived from it.
measure.name: pIC50

* CC(C)C[C@@H]1NC(=O)[C@H]([C@@H](C)O)NC(=O)[C@H](CC(=O)O)NC(=O)[C@H](CO)NC(=O)[C@H](CCCNC(=N)N)N(C)C(=O)c2ccccc2CSC[C@@H](C(=O)N[C@H](Cc2ccccc2)C(=O)N[C@H](CCC(=O)O)C(=O)N[C@H](CCCCN)C(N)=O)NC1=O [compound 187] (HELM PEPTIDE1{[meR].S.D.T.L.C.[dF].[dE].[dK].[am]}|CHEM1{[O=C(c1ccccc1C[*:2])[*:1]]}$PEPTIDE1,CHEM1,1:R1-1:R1|PEPTIDE1,CHEM1,6:R3-1:R2$$$V2.0) | 7.00 to 7.60
* CC(C)C[C@@H]1NC(=O)[C@H]([C@@H](C)O)NC(=O)[C@H](CC(=O)O)NC(=O)[C@H](CO)NC(=O)[C@H](CCCNC(=N)N)N(C)C(=O)CSC(C)(C)[C@@H](C(=O)N[C@@H](Cc2c[nH]c3ccccc23)C(=O)N[C@H](CCCCN)C(N)=O)NC1=O | < 6.00
* CC(C)C[C@@H]1NC(=O)[C@H]([C@@H](C)O)NC(=O)[C@H](CC(=O)O)NC(=O)[C@H](CO)NC(=O)[C@H](CCCNC(=N)N)N(C)C(=O)c2ccccc2CSC(C)(C)[C@@H](C(=O)N[C@@H](Cc2c[nH]c3ccccc23)C(=O)N[C@H](CCC(=O)O)C(=O)N[C@@H](CC(C)C)C(=O)N[C@H](CCCCN)C(N)=O)NC1=O [compound 190] (HELM PEPTIDE1{[meR].S.D.T.L.[Pen].W.[dE].L.[dK].[am]}|CHEM1{[O=C(c1ccccc1C[*:2])[*:1]]}$PEPTIDE1,CHEM1,1:R1-1:R1|PEPTIDE1,CHEM1,6:R3-1:R2$$$V2.0) | > 7.60
